- measured.on: T1, human TMEM106B (human, UniProt Q9NUM4 2-274)
- T1 construct: Full-length, on transiently transfected HEK293 cells, or natively expressed on HeLa, U251 and A549 cells; also called huTMEM106B; huTMEM
- assay.name: FACS A549
What MFI was measured for each of the following?
Give your answer as a number; write no unit.

Hello, please tell me recorded MFI for this one: anti-TMEM106B antibody TM-4 (antibody, V domains shown) VH: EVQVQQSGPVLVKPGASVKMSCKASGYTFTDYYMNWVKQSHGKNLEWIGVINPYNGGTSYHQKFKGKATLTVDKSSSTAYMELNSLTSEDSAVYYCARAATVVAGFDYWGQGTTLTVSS VL: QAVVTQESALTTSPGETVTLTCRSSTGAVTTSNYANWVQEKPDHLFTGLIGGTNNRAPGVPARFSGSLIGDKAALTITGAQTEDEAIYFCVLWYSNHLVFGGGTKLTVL
916

Return the recorded MFI value; entry: anti-TMEM106B antibody TM-17 (antibody, V domains shown) VH: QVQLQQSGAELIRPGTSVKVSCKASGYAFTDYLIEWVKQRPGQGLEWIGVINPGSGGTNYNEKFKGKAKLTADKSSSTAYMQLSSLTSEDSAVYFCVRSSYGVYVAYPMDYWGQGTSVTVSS VL: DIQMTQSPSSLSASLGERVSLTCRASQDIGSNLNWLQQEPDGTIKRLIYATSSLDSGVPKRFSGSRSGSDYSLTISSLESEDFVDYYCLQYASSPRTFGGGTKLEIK
953

Please report the measured MFI for anti-TMEM106B antibody TM-15 (antibody, V domains shown, mouse IgG from hybridoma) VH: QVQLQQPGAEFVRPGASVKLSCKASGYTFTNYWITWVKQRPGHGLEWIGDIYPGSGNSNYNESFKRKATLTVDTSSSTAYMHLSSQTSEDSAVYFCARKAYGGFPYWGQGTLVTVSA VL: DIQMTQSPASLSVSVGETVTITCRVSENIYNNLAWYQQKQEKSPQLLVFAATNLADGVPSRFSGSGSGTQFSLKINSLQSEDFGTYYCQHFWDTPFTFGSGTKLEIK
938
